- TEST NAME: Tmax in mouse at 20 mg/kg, po
- Type: ADME, organism-based
- Parameters: dose 20 mg/kg, route oral
- RUN PARAMETERS: in vivo
ENDPOINT NAME: Tmax (h)
Report as a plain number; the unit h is understood.

For this molecule ( `Nc1ncc(-c2cnn([C@H]3CC[C@H](O)CC3)c2)c2cc(-c3cccc4nnsc34)oc12` ), measured Tmax is 8

* * *

- TEST NAME: Metabolic stability in human liver microsomes assessed as extraction ratio
- Assay type: ADME, Microsome
- RUN PARAMETERS: read-out: ERH
ENDPOINT NAME: hepatic extraction ratio

Observe how each entry below is paired with its result.
Nc1ncc(-c2cnn([C@H]3CC[C@H](O)CC3)c2)c2c(Cl)c(-c3cccc4nnsc34)oc12: 0.4
Nc1ncc(-c2cnn([C@H]3CC[C@H](O)CC3)c2)c2c(C(F)F)c(-c3cccc4nnsc34)oc12: 0.48
Nc1ncc(-c2cnn([C@H]3CC[C@H](O)CC3)c2)c2cc(-c3cccc4nnsc34)oc12: 0.48
Nc1ncc(-c2cnn([C@H]3CC[C@H](O)CC3)c2)c2c(CF)c(-c3cccc4nnsc34)oc12: 0.49
N#Cc1c(-c2cccc3nnsc23)oc2c(N)ncc(-c3cnn([C@H]4CC[C@H](O)CC4)c3)c12: 0.38

For this compound ( `Nc1ncc(-c2cnn([C@H]3CC[C@H](O)CC3)c2)c2c(-c3cncs3)c(-c3cccc4nnsc34)oc12` ), measured hepatic extraction ratio is 0.55

For this compound ( `Nc1ncc(-c2cnn([C@H]3CC[C@H](O)CC3)c2)c2c(-c3cccnc3)c(-c3cccc4nnsc34)oc12` ), measured hepatic extraction ratio is 0.41

* * *

- SYSTEM UNDER TEST: Mitogen-activated protein kinase kinase kinase 7 (Homo sapiens, UniProt O43318)
- Sequence (O43318 whole entry): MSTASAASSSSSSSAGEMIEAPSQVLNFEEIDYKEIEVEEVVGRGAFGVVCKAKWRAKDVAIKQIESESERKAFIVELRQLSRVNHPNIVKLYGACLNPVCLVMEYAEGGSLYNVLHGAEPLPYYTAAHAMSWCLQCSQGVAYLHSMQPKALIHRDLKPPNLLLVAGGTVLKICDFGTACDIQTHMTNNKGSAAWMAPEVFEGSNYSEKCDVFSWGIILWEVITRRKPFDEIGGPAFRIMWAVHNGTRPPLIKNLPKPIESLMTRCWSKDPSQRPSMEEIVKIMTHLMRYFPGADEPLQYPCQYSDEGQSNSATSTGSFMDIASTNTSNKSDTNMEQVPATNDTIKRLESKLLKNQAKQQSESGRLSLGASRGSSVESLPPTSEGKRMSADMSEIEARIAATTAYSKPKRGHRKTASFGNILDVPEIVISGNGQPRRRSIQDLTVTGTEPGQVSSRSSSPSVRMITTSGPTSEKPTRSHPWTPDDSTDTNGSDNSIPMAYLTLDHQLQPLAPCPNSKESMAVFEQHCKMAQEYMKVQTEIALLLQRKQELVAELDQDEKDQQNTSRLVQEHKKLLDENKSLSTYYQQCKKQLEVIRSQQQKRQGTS
- TEST NAME: Inhibition of TAK1 in human HCT116 cells assessed as inhibition of TNF-alpha-stimulated JNK phosphorylation
- Assay type: cell-based, HCT-116
ENDPOINT NAME: IC50 (nM)
Report as a plain number; the unit nM is understood.

N#Cc1c(-c2cccc3nnsc23)oc2c(N)ncc(-c3cnn([C@H]4CC[C@H](O)CC4)c3)c12: 17

Switching to the query record.
IC50 on Mitogen-activated protein kinase kinase kinase 7 (Homo sapiens, UniProt O43318) for `Nc1ncc(-c2cnn([C@H]3CC[C@H](O)CC3)c2)c2c(-c3cccnc3)c(-c3cccc4nnsc34)oc12` is 130

* * *

- TEST NAME: Half life in mouse at 2 mg/kg, iv
- Format: ADME, organism-based
- Design: dose 2 mg/kg, route intravenous
- RUN PARAMETERS: in vivo
Use 2 h as the dividing line for half-life, with the line itself on the true side and lower values as false.

Reference set, count: 4
Nc1ncc(-c2cnn([C@H]3CC[C@H](O)CC3)c2)c2cc(-c3cccc4cnsc34)oc12: true
CC(=O)N1CCC(n2cc(-c3cnc(N)c4oc(-c5csc6cnccc56)cc34)cn2)CC1: false
Nc1ncc(-c2cnn([C@H]3CC[C@H](O)CC3)c2)c2c(Cl)c(-c3cccc4nnsc34)oc12: true
Nc1ncc(-c2cnn([C@H]3CC[C@H](O)CC3)c2)c2c(C(F)F)c(-c3cccc4nnsc34)oc12: false

Now take the following compound into account.
Check if half-life >= 2 h (inclusive). Item: `Nc1ncc(-c2cnn([C@H]3CC[C@H](O)CC3)c2)c2cc(-c3cccc4nnsc34)oc12`
false
